Origin of the recorded values: patent US20250186436A1

# test description: PK study in male Sprague-Dawley rats dosed once per day for five days, PO 25 mg/kg, 0.5% HPMC (Example 8)
# Assay type: in vivo
# particulars: male, Sprague-Dawley, rat, in vivo, po, 25 mg/kg, day five of daily PO 25 mg/kg, 0.5% HPMC suspension, individual animals
quantity name: Tmax (h)
Give the value, in units of h, as a plain number.

Give the value of Tmax reported for the following: Cc1cc(Nc2cc(N)ncn2)c(=O)n2c1C(=O)NC21CCC2(CC2)CC1
1

* * *

# Test system: P-gp (human MDR1, ABCB1)
# test description: in vitro
# particulars: dog, MDCK-MDR1
quantity name: Papp B→A
Note to self: number, then unit, no commentary.

Give the value of Papp B→A reported for the following: Cc1cc(Nc2cc(NC(=O)C3CC4(CNC4)C3)ncn2)c(=O)n2c1C(=O)NC21CCC2(CC2)CC1 [4ET-03-057]
1.1 ×10⁻⁶ cm/s
